Provenance of the data: patent US20060276464A1

Target: SFRP-1 (Homo sapiens, UniProt Q8N474)
Sequence (Q8N474 32-314): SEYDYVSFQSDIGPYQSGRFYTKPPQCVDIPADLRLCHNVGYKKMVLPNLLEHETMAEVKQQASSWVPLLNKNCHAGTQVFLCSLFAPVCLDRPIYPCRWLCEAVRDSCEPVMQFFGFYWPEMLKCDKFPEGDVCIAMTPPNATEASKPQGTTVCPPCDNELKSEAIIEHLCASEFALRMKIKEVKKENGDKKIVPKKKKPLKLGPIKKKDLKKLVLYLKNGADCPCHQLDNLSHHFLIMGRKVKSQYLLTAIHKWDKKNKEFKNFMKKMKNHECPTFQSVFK
Test: Cell-based assay for in vitro measurement of SFRP-1/SARP2 antagonist activity (U2OS cells co-transfected with 16x TCF-tk-Luciferase reporter, Wnt and hSFRP-1);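 note: U2OS cells co-transfected with a TCF-tk luciferase reporter, a Wnt vector, hSFRP-1 or empty vector and CMV-βgal, luciferase luminescence read in cell lysates alongside βgal activity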
Conditions: U2OS, read-out: Fold Induction without SFRP-1, Conc 30 μM; without SFRP-1, single dose
Quantity: fold induction at 30 µM

Some solved cases for reference:
{"Chem Smiles": "CCN(CC)CCCNS(=O)(=O)c1cccc(S(=O)(=O)c2ccccc2)c1", "System Tested": "SFRP-1 (Homo sapiens, UniProt Q8N474)", "fold induction at 30 µM": 1.3}
{"Chem Smiles": "COc1ccc(CCNS(=O)(=O)c2cc(S(=O)(=O)c3ccc(Cl)cc3)ccc2C)cc1OC", "System Tested": "SFRP-1 (Homo sapiens, UniProt Q8N474)", "fold induction at 30 µM": 0.4}
{"Chem Smiles": "COCCNS(=O)(=O)c1cccc(S(=O)(=O)c2ccccc2)c1", "System Tested": "SFRP-1 (Homo sapiens, UniProt Q8N474)", "fold induction at 30 µM": 1.2}
{"Chem Smiles": "O=S(=O)(NCCCN1CCCC1)c1cccc(S(=O)(=O)c2ccccc2)c1", "System Tested": "SFRP-1 (Homo sapiens, UniProt Q8N474)", "fold induction at 30 µM": 1.8}
{"Chem Smiles": "O=S(=O)(NCCc1ccccn1)c1cccc(S(=O)(=O)c2ccccc2)c1", "System Tested": "SFRP-1 (Homo sapiens, UniProt Q8N474)", "fold induction at 30 µM": 0.9}
{"Chem Smiles": "Cc1ccc(S(=O)(=O)c2ccc(F)cc2)cc1S(=O)(=O)NCCc1ccccc1", "System Tested": "SFRP-1 (Homo sapiens, UniProt Q8N474)", "fold induction at 30 µM": 0.5}
{"Chem Smiles": "Cc1ccc(S(=O)(=O)c2ccc(C)c(S(=O)(=O)NCCc3ccccc3F)c2)cc1", "System Tested": "SFRP-1 (Homo sapiens, UniProt Q8N474)", "fold induction at 30 µM": 0.5}
{"Chem Smiles": "Cc1ccc(S(=O)(=O)c2ccc(C)c(S(=O)(=O)NCCc3ccccc3Cl)c2)cc1", "System Tested": "SFRP-1 (Homo sapiens, UniProt Q8N474)", "fold induction at 30 µM": 0.5}

I = O=S(=O)(NCCN1CCOCC1)c1cccc(S(=O)(=O)c2ccccc2)c1
II = COc1ccc(CCNS(=O)(=O)c2cc(S(=O)(=O)c3ccc(C)cc3)ccc2C)cc1OC
Which has the smaller recorded fold induction at 30 µM, I or II ? Reply with the label of the item you choose. II
